All values here come from patent US20120149718A1.

- MEASURED_TARGET: human P2X7 (Homo sapiens, UniProt Q99572)
- Construct: 1321N1 cells stably expressing the full length human P2X7 gene (1321N1-hP2X7)
- Sequence (Q99572 whole entry): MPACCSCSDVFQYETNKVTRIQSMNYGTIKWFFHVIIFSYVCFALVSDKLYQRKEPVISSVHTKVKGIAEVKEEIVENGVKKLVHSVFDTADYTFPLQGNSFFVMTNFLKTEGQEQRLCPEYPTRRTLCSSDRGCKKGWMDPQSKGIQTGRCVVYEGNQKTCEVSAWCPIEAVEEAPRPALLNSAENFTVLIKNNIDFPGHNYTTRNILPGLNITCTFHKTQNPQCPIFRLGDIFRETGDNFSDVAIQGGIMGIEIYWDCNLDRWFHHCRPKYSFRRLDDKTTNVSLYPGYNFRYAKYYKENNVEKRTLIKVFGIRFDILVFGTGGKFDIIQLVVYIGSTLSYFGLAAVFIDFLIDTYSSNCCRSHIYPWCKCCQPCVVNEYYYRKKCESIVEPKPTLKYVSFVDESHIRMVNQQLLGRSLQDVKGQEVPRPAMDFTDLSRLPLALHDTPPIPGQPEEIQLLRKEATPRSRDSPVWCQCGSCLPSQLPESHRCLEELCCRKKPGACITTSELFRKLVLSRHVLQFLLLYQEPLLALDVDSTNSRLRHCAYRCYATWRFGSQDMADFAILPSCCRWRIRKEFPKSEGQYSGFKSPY
- PROTOCOL_NOTES: Intracellular Calcium Flux (FLIPR) Assay
- Type: cell-based
- CONDITION_INFO: 1321N1 cells stably expressing full length human P2X7; agonist 100 μM BzATP; fluo-3 calcium flux; read-out: FLIPR pIC50 hP2X7-1321n1 (converted)
MEASURED_ATTRIBUTE: IC50 (nM)

>  <COMPOUND>
Cc1cccc2nc(NC(=O)C(Cc3ccc(F)cc3)c3ccc(S(C)(=O)=O)cc3)oc12 (centres unmarked)

>  <MEASURED_ATTRIBUTE>
IC50

>  <VALUE>
28.8

$$$$
>  <COMPOUND>
CN(C)CCNC(=O)c1ccc(C(Cc2ccc(F)cc2)C(=O)Nc2nc3ccccc3o2)cc1 (centres unmarked)

>  <MEASURED_ATTRIBUTE>
IC50

>  <VALUE>
389

$$$$
>  <COMPOUND>
NC(=O)c1ccc(C(Cc2ccc(F)cc2)C(=O)Nc2nc3ccccc3o2)cc1 (centres unmarked)

>  <MEASURED_ATTRIBUTE>
IC50

>  <VALUE>
20.4

$$$$
>  <COMPOUND>
CS(=O)(=O)c1ccc(C(Cc2ccccc2Cl)C(=O)Nc2nc3ccccc3o2)cc1 (centres unmarked)

>  <MEASURED_ATTRIBUTE>
IC50

>  <VALUE>
537

$$$$
>  <COMPOUND>
CC(C)(O)c1ccc(C(Cc2ccc(F)cc2)C(=O)Nc2nc3ccccc3o2)cc1 (centres unmarked)

>  <MEASURED_ATTRIBUTE>
IC50

>  <VALUE>
282

$$$$
>  <COMPOUND>
CCOCc1cnc(NC(=O)C(Cc2ccc(F)cc2)c2ccc(S(C)(=O)=O)cc2)cn1 (centres unmarked)

>  <MEASURED_ATTRIBUTE>
IC50

>  <VALUE>
741

$$$$
>  <COMPOUND>
CS(=O)(=O)c1ccc(C(Cc2ccc(F)cc2)C(=O)Nc2nc3cnccc3o2)cc1 (centres unmarked)

>  <MEASURED_ATTRIBUTE>
IC50

>  <VALUE>
31.6

$$$$
>  <COMPOUND>
O=C(NCCO)c1ccc(C(Cc2ccc(F)cc2)C(=O)Nc2nc3ccccc3o2)cc1 (centres unmarked)

>  <MEASURED_ATTRIBUTE>
IC50

>  <VALUE>
347

$$$$
>  <COMPOUND>
CC(C)(O)c1cnc(NC(=O)C(Cc2ccc(F)cc2)c2ccc(S(C)(=O)=O)cc2)cn1 (centres unmarked)

>  <MEASURED_ATTRIBUTE>
IC50

>  <VALUE>
1070

$$$$
>  <COMPOUND>
CS(=O)(=O)c1ccc(C(Cc2ccc(F)cc2)C(=O)Nc2cncc(Cl)n2)cc1 (centres unmarked)

>  <MEASURED_ATTRIBUTE>
IC50

>  <VALUE>
851

$$$$
>  <COMPOUND>
Cc1ccccc1CC(C(=O)Nc1cnc(Br)cn1)c1ccc(S(C)(=O)=O)cc1 (centres unmarked)

>  <MEASURED_ATTRIBUTE>
IC50

>  <VALUE>
389

$$$$
>  <COMPOUND>
COCc1cnc(NC(=O)C(Cc2ccc(F)cc2)c2ccc(S(C)(=O)=O)cc2)cn1 (centres unmarked)

>  <MEASURED_ATTRIBUTE>
IC50

>  <VALUE>
646

$$$$
>  <COMPOUND>
CS(=O)(=O)c1ccc(C(Cc2ccc(F)cc2)C(=O)Nc2ncc(-c3ccccc3)o2)cc1 (centres unmarked)

>  <MEASURED_ATTRIBUTE>
IC50

>  <VALUE>
295

$$$$
>  <COMPOUND>
CS(=O)(=O)c1ccc(C(Cc2ccc(F)cc2)C(=O)Nc2cnc(CO)cn2)cc1 (centres unmarked)

>  <MEASURED_ATTRIBUTE>
IC50

>  <VALUE>
117

$$$$
>  <COMPOUND>
Cc1ccc2oc(NC(=O)C(Cc3ccc(F)cc3)c3ccc(S(C)(=O)=O)cc3)nc2c1 (centres unmarked)

>  <MEASURED_ATTRIBUTE>
IC50

>  <VALUE>
166

$$$$
>  <COMPOUND>
O=C(Nc1nc2ccccc2o1)C(Cc1ccc(F)cc1)c1ccc(F)cc1F (centres unmarked)

>  <MEASURED_ATTRIBUTE>
IC50

>  <VALUE>
501

$$$$
>  <COMPOUND>
CS(=O)(=O)c1ccc(C(Cc2ccc(F)cc2)C(=O)Nc2nc3ccc(F)cc3o2)cc1 (centres unmarked)

>  <MEASURED_ATTRIBUTE>
IC50

>  <VALUE>
38.9

$$$$
